measured on: UniProtKB P01116
Sequence (P01116 1-188 isoform P01116-2): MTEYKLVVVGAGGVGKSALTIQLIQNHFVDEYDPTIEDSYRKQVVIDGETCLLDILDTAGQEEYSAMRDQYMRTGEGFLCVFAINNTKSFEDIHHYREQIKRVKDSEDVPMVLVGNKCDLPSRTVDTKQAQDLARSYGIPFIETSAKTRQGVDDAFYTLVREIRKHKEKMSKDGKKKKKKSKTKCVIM
test: Binding to KRAS by surface plasmon resonance (SPR), dissociation constant KD
conditions: 1:1 binding model
*1 amine or outer side, *2 acyl side, *3 side chain or, on linkers, in order; H or OH if unused. Where a SMILES comes first, the peptide text is derived from it. Bridges are numbered along the chain shown (N, C = ends). [ ]: non-standard residue; d: D form. The star is where a group is joined. hPhe(3-Cl-4-CF3) = N[C@@H](CCc1ccc(C(F)(F)F)c(Cl)c1)C(=O)O; X5 = Cc1ccc(C[C@@H](C(=O)[*:2])N(CCC(C)(C)C)[*:1])cc1; NMeGly(cPent) = CN[C@H](C(=O)O)C1CCCC1; NMeD = CN[C@@H](CC(=O)O)C(=O)O; NMeL = CN[C@@H](CC(C)C)C(=O)O; Morpholide = C1CN(*)CCO1; NMeA = CN[C@@H](C)C(=O)O; Ac5c = NC1(C(=O)O)CCCC1; Aze = O=C(O)[C@@H]1CCN1; Sar = CNCC(=O)O
measured quantity: pKd
Field pKd (float): negative decimal logarithm of the concentration in molar.

**Q:** GET /values?readout=pKd&item= CC[C@H](C)[C@@H]1NC(=O)[C@H](CC(C)C)N(C)C(=O)C[C@@H](C(=O)N2CCOCC2)N(C)C(=O)[C@H](C2CCCC2)N(C)C(=O)C2(CCCC2)NC(=O)[C@@H]2CCCN2C(=O)[C@H](CCc2ccc(C(F)(F)F)c(Cl)c2)NC(=O)CN(C)C(=O)[C@H](Cc2ccc(C)cc2)N(CCC(C)(C)C)C(=O)[C@@H]2CCN2C(=O)[C@H](C)N(C)C1=O [PP0087] ([NMeL]I[NMeA][Aze][X5][Sar][hPhe(3-Cl-4-CF3)]P[Ac5c][NMeGly(cPent)][NMeD]-Morpholide; lactam N-11)
**A:** 9.12
